Test system: A431(human epidermal carcinoma cells)
assay.comment: Cytotoxicity of compounds to tumor cell lines (MTS, 5 days)
Format: cell-based
conditions.used: A-431, 120 h, A431, 5 days
readout: IC50 (nM)
Give just the numeric value; nM need not be written.

Form: Entry = C=C1C[C@@H]2CC[C@@]34C[C@H]5O[C@H]6[C@@H](O3)[C@H]3O[C@H](CC[C@@H]3O[C@H]6[C@H]5O4)CC(=O)C[C@@H]3[C@@H](OC)[C@@H](C[C@H](O)CN)O[C@H]3C[C@H]3O[C@@H](CC[C@@H]1O2)C[C@@H](C)C3=C [D-4(eribulin), eribulin] | System = A431(human epidermal carcinoma cells) | IC50 = ____
0.03

# query: IC50 | item "C=C1C[C@@H]2CC[C@@]34C[C@H]5O[C@H]6[C@@H](O3)[C@H]3O[C@H](CC[C@@H]3O[C@H]6[C@H]5O4)CC(=O)C[C@@H]3[C@@H](OC)[C@@H](C[C@H](O)CN(C)C(=O)C(C)C)O[C@H]3C[C@H]3O[C@@H](CC[C@@H]1O2)C[C@@H](C)C3=C" | system: A431(human epidermal carcinoma cells)
0.02
